Some compounds, each annotated with its measured CREATINE PHOSPHOKINASE.
- Species on record: Rattus norvegicus
- method notes: DrugMatrix - Regimen: Daily Repeat
- Format: toxicity, organism-based, Sprague-Dawley
- Set-up: regimen Daily Repeat, gender Male, age 6-8 weeks
- setup conditions: in vivo, iv, 0 mg/kg, 120 h, tissue Plasma, dose level Control, time 5 day, vehicle 100 % SALINE
Units required after the number.

Worked cases, answers included:
O=c1[nH]c(=O)n([C@H]2C[C@H](O)[C@@H](CO)O2)cc1F | 480.67 u/L
COc1cccc2c1C(=O)c1c(O)c3c(c(O)c1C2=O)C[C@@](O)(C(C)=O)C[C@@H]3O[C@H]1C[C@H](N)[C@H](O)[C@H](C)O1 | 242.67 u/L
N=C(N)c1ccc(OCCCCCOc2ccc(C(=N)N)cc2)cc1 | 346.17 u/L
C[N+](C)(C)CCOC(=O)CCC(=O)OCC[N+](C)(C)C.[Cl-].[Cl-] [SUCCINYLCHOLINE CHLORIDE] | 346.17 u/L

Next item in the queue.
input: Reported CREATINE PHOSPHOKINASE for O=C(O)P(=O)(O)O : what is it?
output: 550.33 u/L
